Data provenance is PubChem BioAssay (NCI).

Experiment: NCI Yeast Anticancer Drug Screen. Data for the cln2 rad14 strain (AID 165)
Details: S. cerevisiae cln2 rad14 strain, at 50.0 µM (retest, dose inferred, filed as 5.0)
About 79,000 compounds went through this panel and 15% of them were active in at least one assay; those are over-represented in the sample as a whole. Calls of active or inactive are those of the source. Rule as the data show it: active = growth inhibition above about 70%; inactive = the rest.
Hi there, use one of these labels in your reply, thanks! Yes = active, No = inactive

// outcome(item) with item = O=S(=O)(c1cc(Cl)ccc1O)c1cc(Cl)ccc1O Yes

// outcome(item) with item = N#C/C(=C/N1C(=O)/C(=C/c2ccc([N+](=O)[O-])cc2)SC1=S)c1nc2ccccc2s1 No

// outcome(item) with item = CC(=O)Oc1ccc(N2C(=O)C3c4[nH]c5ccccc5c4C4CCC(C(C)(C)C)CC4C3C2=O)cc1 (stereo unspecified) Yes

// outcome(item) with item = N#C/C(=C1C=C(Br)/C(=N\O)C=C\1Cl)c1cccc2ccccc12 Yes

New cases:
// outcome(item) with item = CC(C)(C)c1ccc(O)c(C(c2ccc([N+](=O)[O-])cc2)c2cc(C(C)(C)C)ccc2O)c1 Yes

// outcome(item) with item = Nc1ccc(S(=O)(=O)Nc2ccc(Nc3c4ccccc4nc4ccccc34)cc2)cc1 No

// outcome(item) with item = S=c1[nH]nc(-c2ccc(Cl)cc2)s1 Yes
